measured-target: somatostatin receptors on AR42J cells (rat)
Sequence (P30680 whole entry): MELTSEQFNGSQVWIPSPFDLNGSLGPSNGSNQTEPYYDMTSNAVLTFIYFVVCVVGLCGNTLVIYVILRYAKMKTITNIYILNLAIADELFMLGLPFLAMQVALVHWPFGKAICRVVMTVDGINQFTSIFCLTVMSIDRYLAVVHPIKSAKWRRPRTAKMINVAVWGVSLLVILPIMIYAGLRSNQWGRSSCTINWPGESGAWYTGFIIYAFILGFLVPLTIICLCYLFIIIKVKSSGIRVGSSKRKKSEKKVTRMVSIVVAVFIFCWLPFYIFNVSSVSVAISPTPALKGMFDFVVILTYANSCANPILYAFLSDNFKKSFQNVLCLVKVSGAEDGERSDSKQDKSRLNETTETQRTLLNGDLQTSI
assay-text: competition with ^111In(DTPA-octreotide) on AR42J cells, apparent IC50
measured-quantity: IC50 (nM)

• Al^19F(IMP466) (Al^19F complex of NOTA-D-Phe-Cys-Phe-D-Trp-Lys-Thr-Cys-Throl) (peptide) = 3.6
